meta.source: ChEMBL document CHEMBL3102844

- ASSAYED_TARGET: ATP-dependent translocase ABCB1 (Homo sapiens, UniProt P08183)
- Sequence (P08183 whole entry): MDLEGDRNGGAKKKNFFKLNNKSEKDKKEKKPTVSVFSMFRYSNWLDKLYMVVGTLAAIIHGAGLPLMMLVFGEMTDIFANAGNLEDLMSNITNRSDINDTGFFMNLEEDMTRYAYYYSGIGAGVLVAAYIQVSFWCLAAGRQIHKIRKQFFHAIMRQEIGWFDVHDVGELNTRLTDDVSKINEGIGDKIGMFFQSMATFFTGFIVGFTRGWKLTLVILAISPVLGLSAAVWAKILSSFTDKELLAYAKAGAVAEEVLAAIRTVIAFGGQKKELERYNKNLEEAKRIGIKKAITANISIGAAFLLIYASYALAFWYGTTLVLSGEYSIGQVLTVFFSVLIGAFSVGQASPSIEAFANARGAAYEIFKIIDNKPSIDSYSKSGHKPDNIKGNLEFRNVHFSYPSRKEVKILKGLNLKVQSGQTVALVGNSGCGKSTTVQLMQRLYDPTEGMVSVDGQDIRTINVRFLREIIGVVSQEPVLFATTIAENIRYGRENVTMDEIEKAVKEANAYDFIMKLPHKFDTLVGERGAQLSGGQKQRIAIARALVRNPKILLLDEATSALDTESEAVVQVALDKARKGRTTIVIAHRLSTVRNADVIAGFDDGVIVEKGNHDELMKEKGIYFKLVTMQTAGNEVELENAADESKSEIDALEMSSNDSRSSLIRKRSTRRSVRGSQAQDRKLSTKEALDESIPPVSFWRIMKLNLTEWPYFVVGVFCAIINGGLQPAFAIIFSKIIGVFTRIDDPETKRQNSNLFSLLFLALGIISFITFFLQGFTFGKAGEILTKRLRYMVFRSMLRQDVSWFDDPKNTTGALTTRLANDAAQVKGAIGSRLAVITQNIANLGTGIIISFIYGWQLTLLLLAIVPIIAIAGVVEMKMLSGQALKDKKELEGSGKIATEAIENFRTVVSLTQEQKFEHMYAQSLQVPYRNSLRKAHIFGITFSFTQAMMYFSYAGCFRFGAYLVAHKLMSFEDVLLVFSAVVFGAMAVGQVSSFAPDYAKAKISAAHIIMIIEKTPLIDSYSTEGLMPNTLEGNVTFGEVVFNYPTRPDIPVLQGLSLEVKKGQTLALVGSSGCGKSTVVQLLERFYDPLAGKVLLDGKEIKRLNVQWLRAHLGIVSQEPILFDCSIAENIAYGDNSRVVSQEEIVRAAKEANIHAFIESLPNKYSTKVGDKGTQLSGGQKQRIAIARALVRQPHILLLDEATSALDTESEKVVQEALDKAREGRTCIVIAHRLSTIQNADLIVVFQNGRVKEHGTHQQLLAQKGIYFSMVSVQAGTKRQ
- EXPERIMENT_NOTES: Inhibition of p-glycoprotein (unknown origin) overexpressed in human KBV20C cells assessed as potentiation of vincristine-induced cytotoxicity at 1 uM incubated for 1 hr prior to vincristine challenge measured after 4 days by MTT assay
- Assay type: cell-based
- EXPERIMENTAL_PARAMETERS: 96 h
fold change (FC) for assorted compounds

[Q] Please give the measured fold change (FC) for this compound: C/C=C1\CN2CC[C@]34C(=C(C=O)[C@H]1C[C@H]23)Nc1ccccc14
[A] 0.2

More entries:
[Q] Please give the measured fold change (FC) for this compound: C/C=C1\CN2CC[C@]34C(=C(C(=O)OC)[C@H]1C[C@H]23)Nc1ccccc14
[A] 0.2

[Q] Please give the measured fold change (FC) for this compound: C/C=C1\CN2CC[C@]34c5ccccc5-n5c3c(cc(C(=O)OC)c5=O)[C@H]1C[C@H]24
[A] 0.2

[Q] Please give the measured fold change (FC) for this compound: CC[C@@H]1CN2CC[C@]34c5ccccc5-n5c3c(cc(C(=O)OC)c5=O)[C@H]1C[C@H]24
[A] 0.2

[Q] Please give the measured fold change (FC) for this compound: CC[C@@H]1CN2CC[C@]34C(=C(C(=O)OC)[C@H]1C[C@H]23)Nc1ccccc14
[A] 0.1

[Q] Please give the measured fold change (FC) for this compound: CC[C@@H]1CN2CC[C@]34c5ccccc5-n5c3c(cc(C(N)=O)c5=O)[C@H]1C[C@H]24
[A] 0.3

###

Kd for assorted molecules
- EXPERIMENT_NOTES: Binding affinity to p-glycoprotein (unknown origin) by intrinsic tryptophan fluorescence quenching assay
- Set-up: species or system Homo sapiens
Write the number in µM without appending the unit.

[Q] Please give the measured Kd for this molecule: CC[C@@H]1CN2CC[C@]34c5ccccc5-n5c3c(cc(C(=O)NCc3cc(OC)c(OC)c(OC)c3)c5=O)[C@H]1C[C@H]24
[A] 4.42

[Q] Please give the measured Kd for this molecule: CC[C@@H]1CN2CC[C@]34c5ccccc5-n5c3c(cc(C(=O)OC)c5=O)[C@H]1C[C@H]24 [LEUCONICINE B]
[A] 13.8

[Q] Please give the measured Kd for this molecule: C/C=C1\CN2CC[C@]34c5ccccc5-n5c3c(cc(C(=O)OC)c5=O)[C@H]1C[C@H]24
[A] 16.1

[Q] Please give the measured Kd for this molecule: CC[C@@H]1CN2CC[C@]34C(=C(C(=O)OC)[C@H]1C[C@H]23)Nc1ccccc14
[A] 92

[Q] Please give the measured Kd for this molecule: C/C=C1\CN2CC[C@]34C(=C(C(=O)OC)[C@H]1C[C@H]23)Nc1ccccc14
[A] 99

[Q] Please give the measured Kd for this molecule: C/C=C1\CN2CC[C@]34C(=C(C=O)[C@H]1C[C@H]23)Nc1ccccc14
[A] 81

Okay, next one:
[Q] Please give the measured Kd for this molecule: CC[C@@H]1CN2CC[C@]34c5ccccc5-n5c3c(cc(C(N)=O)c5=O)[C@H]1C[C@H]24 [LEUCONICINE A]
[A] 14.1

###

- ASSAYED_TARGET: ATP-dependent translocase ABCB1 (Homo sapiens)
- EXPERIMENT_NOTES: Inhibition of human MDR1 overexpressed in human KB cells assessed as potentiation of vincristine-induced cytotoxicity at 3 uM incubated for 1 hr prior to vincristine challenge measured after 4 days by MTT assay relative to verapamil
- Assay type: cell-based
- EXPERIMENTAL_PARAMETERS: 96 h
fold change (FC) for assorted compounds
Reply with the value as a number alone.

[Q] Please give the measured fold change (FC) for this compound: CC[C@@H]1CN2CC[C@]34c5ccccc5-n5c3c(cc(C(=O)OC)c5=O)[C@H]1C[C@H]24
[A] 6.8

[Q] Please give the measured fold change (FC) for this compound: C/C=C1\CN2CC[C@]34C(=C(C=O)[C@H]1C[C@H]23)Nc1ccccc14
[A] 2.1

[Q] Please give the measured fold change (FC) for this compound: CC[C@@H]1CN2CC[C@]34C(=C(C(=O)OC)[C@H]1C[C@H]23)Nc1ccccc14
[A] 3.8

[Q] Please give the measured fold change (FC) for this compound: CC[C@@H]1CN2CC[C@]34c5ccccc5-n5c3c(cc(C(N)=O)c5=O)[C@H]1C[C@H]24
[A] 5

[Q] Please give the measured fold change (FC) for this compound: C/C=C1\CN2CC[C@]34C(=C(C(=O)OC)[C@H]1C[C@H]23)Nc1ccccc14
[A] 3.8

[Q] Please give the measured fold change (FC) for this compound: C/C=C1\CN2CC[C@]34c5ccccc5-n5c3c(cc(C(=O)OC)c5=O)[C@H]1C[C@H]24
[A] 3.8

###

- ASSAYED_TARGET: UniProt P08183
- EXPERIMENT_NOTES: Inhibition of human MDR1 overexpressed in human KB cells assessed as potentiation of vincristine-induced cytotoxicity at 1 uM incubated for 1 hr prior to vincristine challenge measured after 4 days by MTT assay relative to verapamil
- Assay type: cell-based
- EXPERIMENTAL_PARAMETERS: 96 h
fold change (FC) for assorted compounds

// solved cases for fold change (FC) follow
[Q] Field: fold change (FC) (UniProt P08183). Entry: CC[C@@H]1CN2CC[C@]34c5ccccc5-n5c3c(cc(C(N)=O)c5=O)[C@H]1C[C@H]24 [LEUCONICINE A]
[A] 3.8

[Q] Field: fold change (FC) (UniProt P08183). Entry: CC[C@@H]1CN2CC[C@]34c5ccccc5-n5c3c(cc(C(=O)OC)c5=O)[C@H]1C[C@H]24 [LEUCONICINE B]
[A] 3.8

[Q] Field: fold change (FC) (UniProt P08183). Entry: C/C=C1\CN2CC[C@]34C(=C(C(=O)OC)[C@H]1C[C@H]23)Nc1ccccc14
[A] 2.5

[Q] Field: fold change (FC) (UniProt P08183). Entry: C/C=C1\CN2CC[C@]34c5ccccc5-n5c3c(cc(C(=O)OC)c5=O)[C@H]1C[C@H]24
[A] 2.1

[Q] Field: fold change (FC) (UniProt P08183). Entry: CC[C@@H]1CN2CC[C@]34C(=C(C(=O)OC)[C@H]1C[C@H]23)Nc1ccccc14
[A] 2.5

More entries:
[Q] Field: fold change (FC) (UniProt P08183). Entry: CC[C@@H]1CN2CC[C@]34c5ccccc5-n5c3c(cc(C(=O)NCc3cc(OC)c(OC)c(OC)c3)c5=O)[C@H]1C[C@H]24
[A] 93.8

[Q] Field: fold change (FC) (UniProt P08183). Entry: C/C=C1\CN2CC[C@]34C(=C(C=O)[C@H]1C[C@H]23)Nc1ccccc14
[A] 2.1

###

- System: KB
- EXPERIMENT_NOTES: Cytotoxicity against human KB cells overexpressing human MDR1 assessed as reduction in cell viability after 4 days by MTT assay
- Format: functional, cell-based
MEASURE_NAME: Activity

[Q] Please give the measured Activity for this compound: CC[C@@H]1CN2CC[C@]34C(=C(C(=O)OC)[C@H]1C[C@H]23)Nc1ccccc14
[A] Dose-dependent effect

[Q] Please give the measured Activity for this compound: C/C=C1\CN2CC[C@]34c5ccccc5-n5c3c(cc(C(=O)OC)c5=O)[C@H]1C[C@H]24
[A] Dose-dependent effect

[Q] Please give the measured Activity for this compound: CC[C@@H]1CN2CC[C@]34c5ccccc5-n5c3c(cc(C(N)=O)c5=O)[C@H]1C[C@H]24 [LEUCONICINE A]
[A] Dose-dependent effect

###

- ASSAYED_TARGET: ATP-dependent translocase ABCB1 (Homo sapiens, UniProt P08183)
- EXPERIMENT_NOTES: Inhibition of p-glycoprotein (unknown origin) overexpressed in human KBV20C cells assessed as potentiation of vincristine-induced cytotoxicity at 3 uM incubated for 1 hr prior to vincristine challenge measured after 4 days by MTT assay
- Format: cell-based
- EXPERIMENTAL_PARAMETERS: 96 h
fold change (FC) for assorted compounds
Reply with the value as a number alone.

// solved cases for fold change (FC) follow
[Q] Please give the measured fold change (FC) for this compound: C/C=C1\CN2CC[C@]34C(=C(C=O)[C@H]1C[C@H]23)Nc1ccccc14
[A] 0.3

[Q] Please give the measured fold change (FC) for this compound: CC[C@@H]1CN2CC[C@]34C(=C(C(=O)OC)[C@H]1C[C@H]23)Nc1ccccc14
[A] 0.2

[Q] Please give the measured fold change (FC) for this compound: C/C=C1\CN2CC[C@]34c5ccccc5-n5c3c(cc(C(=O)OC)c5=O)[C@H]1C[C@H]24
[A] 0.3

More entries:
[Q] Please give the measured fold change (FC) for this compound: CC[C@@H]1CN2CC[C@]34c5ccccc5-n5c3c(cc(C(=O)OC)c5=O)[C@H]1C[C@H]24
[A] 0.3

[Q] Please give the measured fold change (FC) for this compound: C/C=C1\CN2CC[C@]34C(=C(C(=O)OC)[C@H]1C[C@H]23)Nc1ccccc14
[A] 0.4

[Q] Please give the measured fold change (FC) for this compound: CC[C@@H]1CN2CC[C@]34c5ccccc5-n5c3c(cc(C(N)=O)c5=O)[C@H]1C[C@H]24
[A] 0.6
